# reported pKb; entries follow
# target.entity: Neuropeptide Y receptor type 2 (Homo sapiens) (UniProt P49146)
# Sequence (P49146 whole entry): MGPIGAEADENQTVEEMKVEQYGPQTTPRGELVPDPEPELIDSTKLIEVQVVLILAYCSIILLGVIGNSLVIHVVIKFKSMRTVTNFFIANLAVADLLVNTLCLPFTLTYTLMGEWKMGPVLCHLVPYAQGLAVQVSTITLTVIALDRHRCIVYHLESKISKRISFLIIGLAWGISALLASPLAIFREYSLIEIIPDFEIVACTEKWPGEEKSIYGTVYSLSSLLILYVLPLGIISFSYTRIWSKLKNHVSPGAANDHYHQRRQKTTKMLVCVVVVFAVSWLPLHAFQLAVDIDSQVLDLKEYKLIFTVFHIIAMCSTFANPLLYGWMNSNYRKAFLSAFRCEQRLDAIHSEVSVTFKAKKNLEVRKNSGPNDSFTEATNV
# assay.remarks: Antagonist activity at NPYY2 receptor (unknown origin)
readout.name: pKb

| molecule | observed.result |
| --- | --- |
| CCC(CC)C(=O)Nc1ccc(N2CCN(C(c3ccccc3)c3cc(C)no3)CC2)c(F)c1 (stereo unspecified) | 7.5 |
| CCC(CC)C(=O)Nc1ccc(N2CCN(C(c3cccc(F)c3)c3ncco3)CC2)c(C#N)c1 (stereo unspecified) | 7.9 |
| CCN(CC)C(=O)C(c1ccccc1)N1CCN(c2ccc(NC(=O)c3ccccc3-c3cccnc3)cc2F)CC1 (stereo unspecified) | 8.04 |
| CCC(CC)C(=O)Nc1ccc(N2CCN(C(c3ccccc3)C3CCOC3)CC2)c(F)c1 (stereo unspecified) | 7.2 |
| CCC(CC)C(=O)Nc1ccc(N2CCN(C(c3ccccc3)c3nc(C)no3)CC2)c(F)c1 (stereo unspecified) | 7.4 |
| CCc1noc(C(c2ccccc2)N2CCN(c3ccc(NC(=O)C(CC)CC)cc3F)CC2)n1 (stereo unspecified) | 7.45 |

Each recorded value in this set is attributed to ChEMBL document CHEMBL3102719.
